% inhibition Apol 40' values for the molecules below.
Target: UniProtKB Q8ILY1
Sequence (Q8ILY1 entry or part of it): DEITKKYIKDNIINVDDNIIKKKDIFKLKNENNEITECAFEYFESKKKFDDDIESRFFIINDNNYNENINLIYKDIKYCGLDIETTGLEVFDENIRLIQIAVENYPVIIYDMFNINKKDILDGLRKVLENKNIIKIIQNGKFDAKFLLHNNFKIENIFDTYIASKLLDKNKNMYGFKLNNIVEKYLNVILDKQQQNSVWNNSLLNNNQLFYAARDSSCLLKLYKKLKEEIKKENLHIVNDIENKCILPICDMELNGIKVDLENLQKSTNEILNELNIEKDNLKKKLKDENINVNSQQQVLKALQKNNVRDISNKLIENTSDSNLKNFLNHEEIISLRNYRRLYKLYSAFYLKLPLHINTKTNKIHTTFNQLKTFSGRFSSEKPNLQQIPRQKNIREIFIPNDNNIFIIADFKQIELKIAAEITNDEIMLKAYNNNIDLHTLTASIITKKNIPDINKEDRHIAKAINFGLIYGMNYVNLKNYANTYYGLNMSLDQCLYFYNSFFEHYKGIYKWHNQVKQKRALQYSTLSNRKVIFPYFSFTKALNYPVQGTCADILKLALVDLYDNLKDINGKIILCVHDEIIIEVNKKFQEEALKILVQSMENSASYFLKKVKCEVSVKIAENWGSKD
Experiment: Fluorescence-based high-throughput DNA polymerase assay (molecular beacon), primary screen and dose-response;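 further: compound concentration given in µM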
Format: biochemical
Conditions: DRC-2; concentration 2.5; 40'

Chemical Smiles | Unit Label | % inhibition Apol 40'
COc1ccc(-c2occ(C(=O)O)c2C(=O)O)cc1 | % | 17
Nc1ncnc(NC2CCCCC2)c1[N+](=O)[O-] | % | -1.57
CCc1ccccc1NC(=O)c1ccc(-c2ncccc2NC(C)=O)cc1 | % | 0.556
O=C(Cc1cccs1)N1CCN(c2nc(CN3CCOCC3)cs2)CC1 | % | 9
O=C(Nc1c2c(nn1-c1ccccc1)CSC2)c1ccco1 | % | 21
